tested on: Canis familiaris; assay: Total time in minutes elapsed from the initiation of the change until return to the pretest value of blood pressure in coronary sinus of anesthetized dog at intravenous dosage of 0.1 mg/kg; assay type: functional, Canis lupus familiaris
experimental endpoint: Duration (min)
Respond numerically; units are min and should not be typed.

State its Duration for this molecule: CNC(=O)[C@H]1O[C@@H](n2cnc3c(N)ncnc32)[C@H](O)[C@@H]1O
240

State its Duration for this molecule: CONC(=O)[C@H]1O[C@@H](n2cnc3c(N)ncnc32)[C@H](O)[C@@H]1O
90

State its Duration for this molecule: CCCCNC(=O)[C@H]1OC(n2cnc3c(N)ncnc32)[C@H](O)[C@@H]1O (some centres undefined)
40

State its Duration for this molecule: CCC(CC)NC(=O)[C@H]1OC(n2cnc3c(N)ncnc32)[C@H](O)[C@@H]1O (some centres undefined)
110

State its Duration for this molecule: C#CCNC(=O)[C@H]1OC(n2cnc3c(N)ncnc32)[C@H](O)[C@@H]1O (some centres undefined)
70

State its Duration for this molecule: C=C(C)CNC(=O)[C@H]1OC(n2cnc3c(N)ncnc32)[C@H](O)[C@@H]1O (some centres undefined)
15

State its Duration for this molecule: Nc1ncnc2c1ncn2[C@@H]1O[C@H](C(=O)NC2CCCC2)[C@@H](O)[C@H]1O
120

State its Duration for this molecule: CCCONC(=O)[C@H]1OC(n2cnc3c(N)ncnc32)[C@H](O)[C@@H]1O (some centres undefined)
13

State its Duration for this molecule: CCOCCNC(=O)[C@H]1OC(n2cnc3c(N)ncnc32)[C@H](O)[C@@H]1O (some centres undefined)
1

* * *

Would you mind telling me the reported LD50 of each entry?
assay: Lethal dose in mice after intraperitoneal administration; assay type: toxicity, organism-based; settings: mouse, in vivo, ip
Please state the number and follow it with the unit.

State its LD50 for this compound: Nc1ncnc2c1ncn2C1O[C@H](C(=O)NCCO)[C@@H](O)[C@H]1O (some centres undefined)
2 mg/kg

State its LD50 for this compound: CCNC(=O)[C@H]1O[C@@H](n2cnc3c(N)ncnc32)[C@@H](OC(C)=O)C1OC(C)=O (some centres undefined)
2 mg/kg

State its LD50 for this compound: CCCONC(=O)[C@H]1OC(n2cnc3c(N)ncnc32)[C@H](O)[C@@H]1O (some centres undefined)
200 mg/kg

State its LD50 for this compound: CN(C)C(=O)[C@H]1OC(n2cnc3c(N)ncnc32)[C@H](O)[C@@H]1O (some centres undefined)
50 mg/kg

* * *

test system: Canis familiaris; test: Total time in minutes elapsed from the initiation of the change until return to the pretest value of blood pressure in coronary sinus of anesthetized dog at intravenous dosage of 0.01 mg/kg; format: functional, Canis lupus familiaris
Hi! Just check whether Duration is below 90 min. Below gives Satisfied, equal or above gives Not satisfied.

Strictly below 90 min in Duration? CC(C)NC(=O)[C@H]1OC(n2cnc3c(N)ncnc32)[C@H](O)[C@@H]1O (some centres undefined)
Satisfied

Strictly below 90 min in Duration? CNC(=O)[C@H]1O[C@@H](n2cnc3c(N)ncnc32)[C@H](O)[C@@H]1O
Satisfied

Strictly below 90 min in Duration? Nc1c2ncn(C3O[C@H](C(=O)NC4CC4)[C@@H](O)[C@H]3O)c2nc[n+]1[O-] (some centres undefined)
Satisfied

Strictly below 90 min in Duration? C=CCNC(=O)[C@H]1OC(n2cnc3c(N)ncnc32)[C@H](O)[C@@H]1O (some centres undefined)
Satisfied

Strictly below 90 min in Duration? Nc1ncnc2c1ncn2[C@@H]1O[C@H](C(=O)NC2CC2)[C@@H](O)[C@H]1O
Not satisfied

Strictly below 90 min in Duration? CCNC(=O)[C@H]1O[C@@H](n2cnc3c(N)ncnc32)[C@H](O)[C@@H]1O [NECA]
Not satisfied

Strictly below 90 min in Duration? NC(=O)[C@H]1OC(n2cnc3c(N)ncnc32)[C@H](O)[C@@H]1O (some centres undefined)
Satisfied
